FYI, the data here is from ChEMBL document CHEMBL2401654.

MEASUREMENT NOTES: Clearance in C57BL/6 mouse at 2 mg/kg, iv
Format: ADME, organism-based
Set-up: dose 2 mg/kg, route intravenous
APPLIED CONDITIONS: in vivo
TEST READOUT: clearance (mL/min/kg)
Numbers only, in mL/min/kg.

Suppose we examine the compound Cc1cc(N2CC[C@H](N3CCC[C@@H]3C)C2)ccc1NC(=O)c1cc(F)ccc1C ; what clearance value has been reported?
60

----------
MEASUREMENT NOTES: Drug metabolism in mouse liver microsomes at 5 uM after 20 mins
Format: ADME, Microsome
APPLIED CONDITIONS: read-out: Drug metabolism
Please respond with reported metabolised at 20 min, 5 µM for every item in the list.
Answers are plain numbers, in %.

Sample records with metabolised at 20 min, 5 µM:
Cc1cc(N2CC[C@@H](N3CCC[C@H]3C)C2)ccc1NC(=O)c1cc(F)ccc1C = 17
Cc1cc(N2CC[C@H](N3CCC[C@H]3C)C2)ccc1NC(=O)c1cc(F)ccc1C = 29

Go through the items and report each one's metabolised at 20 min, 5 µM.
1. Cc1cc(N2CC[C@@H](N3CCC[C@@H]3C)C2)ccc1NC(=O)c1cc(F)ccc1C
2. Cc1cc(N2CC[C@H](N3CCC[C@@H]3C)C2)ccc1NC(=O)c1cc(F)ccc1C

1. 20
2. 19
